Test: Cell viability of HL-60 cells, trypan blue exclusion method
Format: cell-based
Settings: human, 1 μM, 4 days incubation
QUANTITY_MEASURED: viability at 4 days, 1 µM (%)

CC(=O)OC1CCC2(C)C(CCC3C4(C)CCC5(C)CCC(C)C(C)C5C4=CC(=O)C32C)C1(C)C(=O)O (stereo not shown); 96.8

---

Tested on: HL-60 cells
Experiment: Protein synthesis ([3H]leucine incorporation) in HL-60 cells
Type: cell-based
Conditions: Homo sapiens; cultured HL-60 cells incubated for 2 hours; read-out: 50% inhibitory activity on the incorporation of [3H]-leucine into protein
// reported IC50 for each item listed
QUANTITY_MEASURED: IC50 (µM)

CC1CCC2(C)CCC3(C)C(=CC(=O)C4(C)C3CCC3C(C)(C(=O)O)C(O)CCC34C)C2C1C (stereo not drawn) [III, 11-keto-β-Boswellic Acid]; 5.1
CC(=O)OC1CCC2(C)C(CCC3C4(C)CCC5(C)CCC(C)C(C)C5C4=CC(=O)C32C)C1(C)C(=O)O (stereo not drawn) [IV, Acetyl-11-keto-β-Boswellic Acid]; 4.1
CC(=O)OC1CCC2(C)C(CCC3C4(C)CCC5(C)CCC(C)C(C)C5C4=CCC32C)C1(C)C(=O)O (stereo not drawn) [II, Acetyl-β-Boswellic Acid]; 5.4
CC1CCC2(C)CCC3(C)C(=CCC4(C)C3CCC3C(C)(C(=O)O)C(O)CCC34C)C2C1C (stereo not drawn) [I, β-Boswellic Acid]; 6.3
